- Tested on: MS2 coat protein
- ASSAY_TEXT: apparent KD of MS2 coat protein; higher = weaker reporter binding
- SETUP_CONDITIONS: Eterna round: R107; input ligand: arginine 13.2 mM
RECORDED_METRIC: apparent KD of MS2 coat protein (nM)

| SEQ_TEXT | UNIT_OF_MEASURE | RESULT_NUMBER |
| --- | --- | --- |
| UCCUGCAGAGCGGCCGCCACUGUAUUGCGUGAGGAUGACCCAACAUGAGGAUCACCCAUGUUGUUUAGGACCGGGCUUGCCACGA [opmullin%] | nM | 13.7 |
| UGGUACAUGAGGAUCACCCAUGUCCUCAUCCGAGGACCGGUACGGCCGCCACUCGAAAUUGCGAUCGGCACAAAACAAAUGCUUG [theeternabot_sameState_MS2_Trp_A_39] | nM | 87.8 |
| UUUUUCGCGGGCGAUACCAGCUUGAUCGUACUGGCCUGGUACAUGAGGAUCACCCAUGUAAGCCCUUGGCAGCGCGCGGGAGAAG [Exclusion - Theophylline B Attempt #1 (HarryS)] | nM | 11.5 |

###

- Tested on: MS2 coat protein
- ASSAY_TEXT: apparent KD of MS2 coat protein; higher = weaker reporter binding
- SETUP_CONDITIONS: Eterna round: R107; input ligand: none
Classification field: 1 = apparent KD of MS2 coat protein at or over 20 nM; 0 = apparent KD of MS2 coat protein under 20 nM.

| SEQ_TEXT | DISCRETE_LABEL |
| --- | --- |
| CCUUAAUAUAGAAGGAGCGCGCUAACAUGAGGAUCACCCAUGUAAAGGGUUUUUGGCUUAGCGCAGGUAGGUCGCUAUAAGAACC [Arg B Ex t1] | 1 |
| GGGCGCGUGGACCGGCGUGCUCCGCUCCGUCGAGGACCGGUACGGCCGCCACUCGACAUGAGGAUCACCCAUGUGCGAGCUCGCG [#1 Exclusion - Tryptophan A Attempt #15 (HarryS)] | 0 |
| CUGUACAUCUCGGCCGCCACUGACAUGAGGAUCACCCAUGUAGUGCCGAUGAGAGACUUAUCGGCCAGGACCGGGAGGUGUGCAG [SSTryp B #32] | 0 |
| GGUACAUGAGGAUCACCCAUGUGUCAUGAUACCAGACAUGAAAAUGUCCCUUGGCAGCAUGCCAGACGGCCGCGUUUAGCGGCCG [Oresin] | 0 |
| GAGACGUCGGGAAGGAGCGCAUCCAAACCACACAUGAGGAUCACCCAUGUAUAAAUAUGCAUGCAGGUAGGUCGCCCGGUGUCCC [Diaxeon] | 1 |
| CUAUAAUAUAGAAGGAGCGUCGAAAAUGGGUAAACAUGAGGAUCACCCAUGUAAAGGGAACGACAGGUAGGUCGCUAUAUUAUAG [AstromonsSSArgB#12] | 1 |
| AAUUGGGUUGGUGAGGUGGUUGGAGGCGAUACCAGCGUGGAAACACGCCCUUGGCAGCGCCAGGACAUGAGGAUCACCCAUGUAA [Praha] | 1 |
| AAUAAUAUGAGGAUCACCCAUAUAAAAGAUACCAGAGUGAUGAUCCUCCCUUGGCAGCUUAACGCUGAUUGAUUACAAUCAGCGA | 1 |
| AAUAAUAAGGCGGCCGCCACUAAACAUGAGGAUCACCCAUGUCUCGAGCGCUUGCAUUUGGGAAGUAGGACCGGGCCAAUAAUAA [Exclusion - Tryptophan B (Freestyle 4)] | 1 |
| UUGAUCAUAUAUGAAAACAUAUAUGCAGAAGGAGCGUGAUAAAACACAGGUAGGUCGCUGAAGGGAACAUGAGGAUCACCCAUGU [AstrosSSArgA#3] | 1 |
| AAACGACAUGAGGAUCACCCAUGUGCCGAUACCAGCCGGAUAUACGGCCCUUGGCAGCGGAGUAAAUCCGGAGGACAAUGGGUAA [Same State Theophylline A GF6] | 1 |
| CCGUAGCUAGGAAGGAGCGCAUACUUCACAUGAGGAUCACCCAUGUCGAGACGUGAGUCAGUGCAGGUAGGUCGCCUAGCUAUGG [Same State - Arginine B (Freestyle 28)] | 0 |
| ACAUUUAACUGAAGGAGCGUGAUAUACAUGAGGAUCACCCAUGUGUCUUUCAUGAAUAAUUCACAGGUAGGUCGCAGACUAAUGA [JR_ExcArginiB_Sub008] | 1 |
| UGUAUGGACUGAAGGAGCGCCUCAAAAUAACUUGAGGAUCACCCAAGUAAGGCGAAAGCCGGGCAGGUAGGUCGCAGUCCAUACU [ArgBX 3] | 0 |
| UGUAUGGAAACAUGAGGAUCACCCAUGUGGCGAGGACCGGUACGGCCGCCACUCGAGCAGCAAGCGUGUAUGACGCUGCUGCAUG [SS-trypA-0] | 1 |
| AGUUGCGUUGGAAGGAGCGGCAUGUGUGGGCCUCCUUACAAUACAUGAGGAUCACCCAUGUGCCAGGUAGGUCGCCAACACAGGU [Tiedmaqu] | 1 |
| UGGCGAGAAGGAAGGAGCGUCAGCUGAGUUACAUGAGGAUCACCCAUGUUUUACAUUGUGUGACAGGUAGGUCGCCUUCUGCCCU [SS-ArgB20] | 0 |
| AAAAGAGGUGGAAGGAGCGGGAGACAUGAGGAUCACCCAUGUGAAGUUACGAAAGGUUCAGCCCAGGUAGGUCGCCAUGUCGAAA [eefemullin] | 0 |
